B1: RSPH3 (parent)
chain: MTVKPAKAASLARNLAKRRRTYLG

variants of: B1; assay: protein stability index of a GFP-peptide fusion (GPS, HEK-293T) (PSI 1-6); higher = more stable; conditions: c terminus: a fixed tail appended;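 further: lentivirally expressed fusions sorted by FACS into six bins by GFP to DsRed ratio, PSI derived from sequencing read proportions per bin multiplied by bin number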
METRIC_NAME: protein stability index
I'd appreciate a reply containing only the number, no unit.

Please review the entries below; each comes with its answer.
In [3]: df
Out[3]:
                   sequence_record  result_value
0  MTVKPAKAASLARRLAKRRRTYLG [N14R]          2.13
1  MTVKPAKAASLARNLAKRRRTNLG [Y22N]          3.46
2   MTVQPAKAASLARNLAKRRRTYLG [K4Q]          3.95
3  MTVKPAKAASLARNLAKRRRTYLW [G24W]          1.63
4   MTVKPAKAKSLARNLAKRRRTYLG [A9K]          2.64
5   CTVKPAKAASLARNLAKRRRTYLG [M1C]          2.71
6  MTVKPAKAASLARNLAKRRITYLG [R20I]          2.17
7  MTVKPAKAASLARNLAKRRRTYLM [G24M]          2.38
8  MTVKPAKAASLAKNLAKRRRTYLG [R13K]          3.08
9  MTVKPAKAASLARNLAARRRTYLG [K17A]          3.39

What protein stability index value was documented for this variant, MTVKPAKAASLARNLAKRRRTYLD [G24D] ?
2.04

Subsequent entry: MGVKPAKAASLARNLAKRRRTYLG [T2G]
3.28

Also check MTVKPAKAASLARWLAKRRRTYLG [N14W]
2.67

Now give it for MTVKSAKAASLARNLAKRRRTYLG [P5S] too.
2.56

Another variant to check: MTVKPAKAASLARNLAKRGRTYLG [R19G]
2.85

Same for MTVKPVKAASLARNLAKRRRTYLG [A6V]
2.89

Now the variant MTVKPAKAASGARNLAKRRRTYLG [L11G]
3
